target: Potassium voltage-gated channel subfamily KQT member 2 (Rattus norvegicus); assay: rat KCNQ2 channel potentiation, selectivity assay for KCNQ1 potentiator project, KCNQ2-CHO-K1 cells (AID 493009); details: FluxOR thallium flux fluorescence, at 10 µM, scaled: buffer 0, activator control 100;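 also: assay conditions were tuned for KCNQ1 rather than KCNQ2 modulators; signal is max minus min fluorescence divided by baseline after thallium stimulus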
Active and inactive are the calls of the source.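 The calls were made as follows: active = mean duplicate potentiation above the buffer control mean plus 5 SD of buffer wells; inactive = the rest.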
Classes used: class 1 = active, class 0 = inactive

[[record]]
compound = "COc1ccc(C(=O)CSc2nnc(NC(=O)C3CC(=O)N(c4cccc(OC)c4)C3)s2)cc1 (stereo unspecified)"
discrete_label = "class 0"

[[record]]
compound = "CCOc1ccc(-n2cc(C(=O)Nc3cccc(C)n3)c3cc(OC)c(OC)cc3c2=O)cc1"
discrete_label = "class 0"

[[record]]
compound = "O=C(NC(=S)Nc1ccccc1Cl)c1csnn1"
discrete_label = "class 1"

[[record]]
compound = "COc1ccc(C2c3ccc4ccccc4c3Oc3ncn(CCCO)c(=N)c32)cc1 (stereo unspecified)"
discrete_label = "class 0"

[[record]]
compound = "Cc1cccc(C)c1NC(=S)NC(=O)c1ccc(Br)o1"
discrete_label = "class 1"

[[record]]
compound = "CCCOC(=S)NC(=O)c1sc2ccccc2c1Cl"
discrete_label = "class 1"

[[record]]
compound = "CCn1c(=S)[nH]c2sc3c(c2c1=O)CCCC3"
discrete_label = "class 1"

[[record]]
compound = "Fc1ccc(-n2cc(-c3ccccc3)c3c(=S)nc[nH]c32)cc1"
discrete_label = "class 0"

[[record]]
compound = "Cc1ccc(C)c(NC(=S)N(Cc2ccco2)C(C)c2cccs2)c1 (stereo unspecified)"
discrete_label = "class 0"

[[record]]
compound = "O=S1(=O)Nc2c(ccc3cccnc23)-c2ccccc21"
discrete_label = "class 1"

[[record]]
compound = "Cc1cc(C)c2ccc(C)[n+]([O-])c2c1O"
discrete_label = "class 0"


---

molecular target: Short transient receptor potential channel 6 (Mus musculus) (UniProt Q61143); assay: activation of mouse TRPC6 channel, confirmation, selectivity assay for TRPC4 activator project, cell-based, HEK293, membrane potential dye, duplicate (AID 434950); settings: HEK293 TRPC6, membrane potential fluorescence, at 10 µM;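 as to activation: 0% = buffer only wells and 100% = acetylcholine maximal-effect wells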
Sequence (Q61143 whole entry, looked up): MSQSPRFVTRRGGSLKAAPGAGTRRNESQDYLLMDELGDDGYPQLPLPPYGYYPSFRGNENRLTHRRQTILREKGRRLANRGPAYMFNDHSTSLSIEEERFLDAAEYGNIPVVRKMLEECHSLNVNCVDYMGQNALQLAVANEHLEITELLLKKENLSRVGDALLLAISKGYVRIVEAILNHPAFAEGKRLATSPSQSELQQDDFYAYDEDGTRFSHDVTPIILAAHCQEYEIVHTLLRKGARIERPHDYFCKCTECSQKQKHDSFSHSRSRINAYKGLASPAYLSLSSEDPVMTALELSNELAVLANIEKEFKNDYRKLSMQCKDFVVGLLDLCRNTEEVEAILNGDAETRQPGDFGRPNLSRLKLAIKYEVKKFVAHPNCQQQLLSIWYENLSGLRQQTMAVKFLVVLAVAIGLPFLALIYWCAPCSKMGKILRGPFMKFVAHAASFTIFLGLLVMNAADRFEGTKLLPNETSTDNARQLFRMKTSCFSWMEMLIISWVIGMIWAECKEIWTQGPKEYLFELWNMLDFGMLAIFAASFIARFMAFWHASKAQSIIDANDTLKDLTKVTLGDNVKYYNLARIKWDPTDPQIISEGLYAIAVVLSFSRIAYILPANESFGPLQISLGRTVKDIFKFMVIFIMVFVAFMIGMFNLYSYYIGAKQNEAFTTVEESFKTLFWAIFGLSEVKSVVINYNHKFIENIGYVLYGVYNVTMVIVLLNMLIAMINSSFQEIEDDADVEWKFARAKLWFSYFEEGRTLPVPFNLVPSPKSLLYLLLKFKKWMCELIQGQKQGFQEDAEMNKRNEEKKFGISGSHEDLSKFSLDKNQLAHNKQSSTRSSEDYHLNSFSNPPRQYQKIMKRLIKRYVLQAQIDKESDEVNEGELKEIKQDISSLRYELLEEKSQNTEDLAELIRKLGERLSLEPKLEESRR
Calls of active or inactive are those of the source.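 How the source made its calls: active means membrane potential signal rise above negative control mean plus 3 SD in both duplicates, also active in the earlier TRPC4 screen; inactive means the rest.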
Labels: active, inactive

[[record]]
compound = "COc1ccc(C(CNC(=O)Cc2ccc3ccccc3c2)N(C)C)cc1 (stereo unspecified)"
discrete_label = "active"

[[record]]
compound = "COc1cc(/C=C2/SC(=S)N(Cc3ccccc3)C2=O)cc(Cl)c1O"
discrete_label = "active"

[[record]]
compound = "Cc1ccc(C)c(-n2cc(CNCCc3cnccn3)c(-c3ccccc3)n2)c1"
discrete_label = "active"

[[record]]
compound = "CCCCC(=O)NNC(=S)NC(=O)C(c1ccccc1)c1ccccc1"
discrete_label = "active"

[[record]]
compound = "Cc1ccc(COn2c(-c3ccc(Cl)cc3Cl)nc3ncccc32)cc1"
discrete_label = "active"

[[record]]
compound = "O=C(NC1CC1)C1=C[C@H](C2CCCCC2)C[C@H](OCc2ccc(CO)cc2)O1"
discrete_label = "active"

[[record]]
compound = "CN(C)/C=C1\\C(=O)N(c2ccc([N+](=O)[O-])cc2)N=C1c1ccccc1"
discrete_label = "inactive"

[[record]]
compound = "CN(C)C(CNC(=S)Nc1cccc(Cl)c1)c1cccnc1 (stereo unspecified)"
discrete_label = "inactive"

[[record]]
compound = "Cc1ccccc1OCC(O)Cn1c(=N)n(Cc2ccccc2)c2ccccc21 (stereo unspecified)"
discrete_label = "active"

[[record]]
compound = "CN(C)C(CNC(=O)c1ccc(C(F)(F)F)cc1)c1ccco1 (stereo unspecified)"
discrete_label = "active"

[[record]]
compound = "CN(C)CCN(C(=O)C1CCCCC1)c1nc2cc3c(cc2s1)OCO3"
discrete_label = "inactive"

